Target: human GLP-2 receptor (Homo sapiens, UniProt O95838, D470N)
Construct: host or cells: HEK293
Sequence (O95838 1-553 D470N): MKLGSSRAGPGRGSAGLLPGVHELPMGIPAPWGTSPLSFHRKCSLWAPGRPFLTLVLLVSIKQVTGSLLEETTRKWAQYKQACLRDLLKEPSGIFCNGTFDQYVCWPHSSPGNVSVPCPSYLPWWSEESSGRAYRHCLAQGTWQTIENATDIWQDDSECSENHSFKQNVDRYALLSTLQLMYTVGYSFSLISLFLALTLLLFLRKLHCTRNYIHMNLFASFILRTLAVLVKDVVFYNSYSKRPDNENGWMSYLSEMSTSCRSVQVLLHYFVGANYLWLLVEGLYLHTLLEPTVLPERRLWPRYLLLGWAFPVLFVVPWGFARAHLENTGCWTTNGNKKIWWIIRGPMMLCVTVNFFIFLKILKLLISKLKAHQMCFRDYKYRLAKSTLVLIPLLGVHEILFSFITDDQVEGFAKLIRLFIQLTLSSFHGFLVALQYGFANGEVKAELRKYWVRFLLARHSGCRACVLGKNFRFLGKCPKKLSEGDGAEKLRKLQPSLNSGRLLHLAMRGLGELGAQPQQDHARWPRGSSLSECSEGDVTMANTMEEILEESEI
Assay: GLP-2 receptor efficacy assay (cAMP AlphaScreen)
Assay type: cell-based
Details: HEK293 cells expressing hGLP-2 receptor, cAMP response; read-out: GLP-2R EC50
Reported EC50 values follow for various substances
Return type: number; implicit unit nM.

The observed EC50 for H-HGEGSFSSDLSTILEGKAARDFIEWLIQTKITD-OH [Compound 13] when tested with human GLP-2 receptor (Homo sapiens, UniProt O95838, D470N) stands at 0.1

====

Target: human GLP-1 receptor (Homo sapiens)
Construct: expressed in transfected cells; host or cells: HEK293
Sequence (P43220 24-463): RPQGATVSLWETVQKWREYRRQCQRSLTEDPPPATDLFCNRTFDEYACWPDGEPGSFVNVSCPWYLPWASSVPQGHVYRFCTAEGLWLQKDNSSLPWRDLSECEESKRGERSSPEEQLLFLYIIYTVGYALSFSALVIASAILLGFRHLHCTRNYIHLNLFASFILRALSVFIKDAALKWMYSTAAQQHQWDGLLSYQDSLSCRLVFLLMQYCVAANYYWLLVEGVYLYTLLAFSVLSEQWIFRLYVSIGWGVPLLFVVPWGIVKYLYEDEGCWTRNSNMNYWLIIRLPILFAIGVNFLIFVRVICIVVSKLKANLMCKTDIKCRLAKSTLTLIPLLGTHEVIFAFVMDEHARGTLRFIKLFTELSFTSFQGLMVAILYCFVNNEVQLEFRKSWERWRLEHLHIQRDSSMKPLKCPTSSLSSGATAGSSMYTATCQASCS
Test: GLP-1 receptor efficacy assay (cAMP AlphaScreen)
Assay type: cell-based
Conditions: HEK293 cells expressing human GLP-1R, cAMP response
Method: The 5′-end primers additionally encoded a near Kozak consensus sequence to ensure efficient translation. […] 48 hours after transfection, cells were seeded for limited dilution cloning and selected with 1 mg/ml G418 in the culture medium. Data from test compounds eliciting an increase in the intracellular level of cAMP were normalized relative to the positive and negative control (vehicle) to calculate the EC50 and maximal response from the concentration response curve.
Reported values of EC50 for individual entries
Report as a plain number; the unit nM is understood.

| substance | value-units | EC50 |
| --- | --- | --- |
| H-HGDGSFSDEMNTILDGQAARDFINWLIQTK-NH2 [Compound 3] | nM | 9 |
| H-HGEGSFSSDLSTILENKAARDFIEWLIQTKITD-OH [Compound 9] | nM | 9.1 |

Measured EC50 of H-HGDGSFSDEMNTILDGQAARDFINWLIQTK-NH2 [Compound 12] : 0.07

Note to self: EC50 recorded for H-HGEGTFTSDLSTILENKAARDFIEWLIQTKITD-OH [Compound 8] was 16

Notebook: H-HGDGSFSSELATILDGQAARDFIAWLIQTKITD-OH [Compound 11] , EC50 read as 0.34

GET /value?item= H-HGEGTFTSDLSKQMEGQAVRDFIEWLIQTKITD-OH [Compound 5] &field=EC50 returns 1

Briefly, EC50 measured for H-HGDGSFSSELATILDGKAARDFINWLIQTKITD-OH [Compound 7] : 0.78

Sample H-HGDGSFSSEMNTILDSQAARDFINWLIQTKITD-OH [Compound 4] ; EC50 observed: 25

Short answer for H-HGEGSFSSDLSTILEGKAARDFIEWLIQTKITD-OH [Compound 13] : EC50 was 18
